test-method-notes: In vitro enzyme assay to detect hydrolysis of chlorophenol red-beta-D-[…] directly proportional to the number of Toxoplasma stably expressing beta-galactosidase
Format: functional, organism-based, Toxoplasma gondii
Design: scale not given: in the data most compounds retested in dose-response had high values
condition-notes: 10 µM
Out of some 85,000 compounds screened, about 440 (0.52%) showed an effect of 50% or more. Many of the other results were omitted from the sample, so strong results are more common in it than they were.
Threshold-based label: Percent Effect under 20% gives TRUE, Percent Effect not under 20% gives FALSE.

# example entries with known answers
compound: Cc1ccc(CN2Cc3nnn(C)c3C(COCc3ccccc3)C2)s1.O=C(O)C(F)(F)F (stereo not given)
assigned-class: FALSE

compound: COCC1CN(Cc2ccc(C)s2)Cc2nnn(C)c21.O=C(O)C(F)(F)F (stereo not given)
assigned-class: TRUE

compound: CCCc1nc(N2CCC(C)CC2)c2c(n1)c(C)nn2CC
assigned-class: FALSE

Moving on to another compound below.
Would you kindly verify if Percent Effect of Cn1nc(C(=O)NC2CCCC2)cc1NC(=O)C1CC1 is strictly less than 20%?
TRUE
